- Tested on: Escherichia coli TOP10
- TEST_DETAILS: shrunken log2 fold change of peptide-encoding DNA abundance (4.5 h post-induction vs induction); higher = less antimicrobial activity (less host growth inhibition)
- TEST_CONTEXT: time post-induction: 4.5 h; library: site-saturation at positions 5, 18, 19, 20
Each entry below carries its reported shrunken log2 fold change.
// return just the number, without any unit appended

Observe how each entry below is paired with its result.
RRIRWRPPRLPRPRPRPPDFPRP
-0.087
RRIRYRPPRLPRPRPRPEPMPRP
-0.0988
RRIRIRPPRLPRPRPRPLNEPRP
-0.497
RRIRMRPPRLPRPRPRPEACPRP
3.9
RRIRWRPPRLPRPRPRPVKLPRP
-0.0719
RRIRMRPPRLPRPRPRPWHWPRP
0.0862

## Input Look up shrunken log2 fold change for this sequence: RRIRERPPRLPRPRPRPTCYPRP
## Output -0.673

## Input Look up shrunken log2 fold change for this sequence: RRIRARPPRLPRPRPRPPFLPRP
## Output 0.529

###

- Tested on: Escherichia coli TOP10
- TEST_DETAILS: shrunken log2 fold change of peptide-encoding DNA abundance (4.5 h post-induction vs induction); higher = less antimicrobial activity (less host growth inhibition)
- TEST_CONTEXT: time post-induction: 4.5 h; library: site-saturation at positions 5, 18, 19, 20
Outcome: yes for shrunken log2 fold change of at least -0.002; no for anything lower.

Answered cases to consult:
RRIRRRPPRLPRPRPRPFLKPRP
no
RRIRHRPPRLPRPRPRPKEHPRP
yes
RRIRVRPPRLPRPRPRPHKTPRP
no
RRIRCRPPRLPRPRPRPNNQPRP
no
RRIRNRPPRLPRPRPRPFNFPRP
yes

## Input Please indicate if the recorded shrunken log2 fold change for RRIRIRPPRLPRPRPRPPGVPRP meets or exceeds -0.002.
## Output yes

## Input Please indicate if the recorded shrunken log2 fold change for RRIRRRPPRLPRPRPRPHAQPRP meets or exceeds -0.002.
## Output yes

## Input Please indicate if the recorded shrunken log2 fold change for RRIRHRPPRLPRPRPRPACYPRP meets or exceeds -0.002.
## Output no

## Input Please indicate if the recorded shrunken log2 fold change for RRIRQRPPRLPRPRPRPQVDPRP meets or exceeds -0.002.
## Output no

## Input Please indicate if the recorded shrunken log2 fold change for RRIRARPPRLPRPRPRPEMHPRP meets or exceeds -0.002.
## Output yes

## Input Please indicate if the recorded shrunken log2 fold change for RRIRARPPRLPRPRPRPNCAPRP meets or exceeds -0.002.
## Output yes

## Input Please indicate if the recorded shrunken log2 fold change for RRIRLRPPRLPRPRPRPRDYPRP meets or exceeds -0.002.
## Output no

## Input Please indicate if the recorded shrunken log2 fold change for RRIRWRPPRLPRPRPRPFSNPRP meets or exceeds -0.002.
## Output no

## Input Please indicate if the recorded shrunken log2 fold change for RRIRGRPPRLPRPRPRPFMKPRP meets or exceeds -0.002.
## Output no

## Input Please indicate if the recorded shrunken log2 fold change for RRIRMRPPRLPRPRPRPWKCPRP meets or exceeds -0.002.
## Output no

## Input Please indicate if the recorded shrunken log2 fold change for RRIRCRPPRLPRPRPRPQSVPRP meets or exceeds -0.002.
## Output no

## Input Please indicate if the recorded shrunken log2 fold change for RRIRQRPPRLPRPRPRPLWTPRP meets or exceeds -0.002.
## Output no

## Input Please indicate if the recorded shrunken log2 fold change for RRIRARPPRLPRPRPRPISRPRP meets or exceeds -0.002.
## Output yes

## Input Please indicate if the recorded shrunken log2 fold change for RRIRHRPPRLPRPRPRPPEGPRP meets or exceeds -0.002.
## Output yes

###

- System: Escherichia coli TOP10
- TEST_DETAILS: shrunken log2 fold change of peptide-encoding DNA abundance (4.5 h post-induction vs induction); higher = less antimicrobial activity (less host growth inhibition)
- TEST_CONTEXT: time post-induction: 4.5 h; library: site-saturation at positions 5, 18, 19, 20
Could you please classify the records by shrunken log2 fold change using these ranges: bottom range (below -0.2), center range (-0.2 to below 0.2), top range (0.2 or more)

Answered cases to consult:
RRIRQRPPRLPRPRPRPYVAPRP
bottom range
RRIRKRPPRLPRPRPRPSQWPRP
center range
RRIRIRPPRLPRPRPRPHVYPRP
center range
RRIRFRPPRLPRPRPRPGPVPRP
top range
RRIRVRPPRLPRPRPRPTFGPRP
top range

## Input Where would RRIRQRPPRLPRPRPRPDCFPRP land among the classes by reported shrunken log2 fold change?
## Output top range

## Input Where would RRIRDRPPRLPRPRPRPQHLPRP land among the classes by reported shrunken log2 fold change?
## Output bottom range

## Input Where would RRIRQRPPRLPRPRPRPSCVPRP land among the classes by reported shrunken log2 fold change?
## Output bottom range

## Input Where would RRIRFRPPRLPRPRPRPKWVPRP land among the classes by reported shrunken log2 fold change?
## Output center range

## Input Where would RRIRFRPPRLPRPRPRPPWKPRP land among the classes by reported shrunken log2 fold change?
## Output center range

## Input Where would RRIRNRPPRLPRPRPRPRRIPRP land among the classes by reported shrunken log2 fold change?
## Output center range

## Input Where would RRIRSRPPRLPRPRPRPNCYPRP land among the classes by reported shrunken log2 fold change?
## Output center range

###

Each entry below carries its reported shrunken log2 fold change.
- Tested on: Escherichia coli TOP10
- TEST_DETAILS: shrunken log2 fold change of peptide-encoding DNA abundance (4.5 h post-induction vs induction); higher = less antimicrobial activity (less host growth inhibition)
- TEST_CONTEXT: time post-induction: 4.5 h; library: site-saturation at positions 5, 18, 19, 20
// return just the number, without any unit appended

Observe how each entry below is paired with its result.
RRIRWRPPRLPRPRPRPRIPPRP
0.0219
RRIRSRPPRLPRPRPRPLQMPRP
0.24
RRIRMRPPRLPRPRPRPCRNPRP
-0.326

As a next step, examine the sequence that follows.
## Input Look up shrunken log2 fold change for this sequence: RRIRHRPPRLPRPRPRPHEKPRP
## Output -0.00373

###

- Test system: Escherichia coli TOP10
- TEST_DETAILS: shrunken log2 fold change of peptide-encoding DNA abundance (4.5 h post-induction vs induction); higher = less antimicrobial activity (less host growth inhibition)
- TEST_CONTEXT: time post-induction: 4.5 h; library: site-saturation at positions 5, 18, 19, 20
Outcome: y for shrunken log2 fold change of at least 0.1; n for anything lower.

Answered cases to consult:
RRIRCRPPRLPRPRPRPVLTPRP
n
RRIRQRPPRLPRPRPRPCYLPRP
n
RRIRMRPPRLPRPRPRPQLAPRP
y
RRIRARPPRLPRPRPRPKPHPRP
y
RRIRERPPRLPRPRPRPTEHPRP
n

Moving on to another sequence below.
## Input Please indicate if the recorded shrunken log2 fold change for RRIRCRPPRLPRPRPRPNFGPRP meets or exceeds 0.1.
## Output n

###

- Tested on: Escherichia coli TOP10
- TEST_DETAILS: shrunken log2 fold change of peptide-encoding DNA abundance (4.5 h post-induction vs induction); higher = less antimicrobial activity (less host growth inhibition)
- TEST_CONTEXT: time post-induction: 4.5 h; library: site-saturation at positions 5, 18, 19, 20
Each entry below carries its reported shrunken log2 fold change.
// return just the number, without any unit appended

Observe how each entry below is paired with its result.
RRIRGRPPRLPRPRPRPITHPRP
0.0909
RRIRIRPPRLPRPRPRPDWGPRP
-0.0242
RRIRIRPPRLPRPRPRPGQLPRP
0.0335

## Input Look up shrunken log2 fold change for this sequence: RRIRYRPPRLPRPRPRPLVWPRP
## Output 0.00227

## Input Look up shrunken log2 fold change for this sequence: RRIRPRPPRLPRPRPRPTLMPRP
## Output 0.227

## Input Look up shrunken log2 fold change for this sequence: RRIRWRPPRLPRPRPRPESAPRP
## Output 1.15

## Input Look up shrunken log2 fold change for this sequence: RRIRMRPPRLPRPRPRPQGFPRP
## Output -0.00865

## Input Look up shrunken log2 fold change for this sequence: RRIRFRPPRLPRPRPRPVWPPRP
## Output 0.263

## Input Look up shrunken log2 fold change for this sequence: RRIRYRPPRLPRPRPRPSRNPRP
## Output -0.12

###

- System: Escherichia coli TOP10;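 further: peptides expressed intracellularly from a pBAD plasmid library in pooled LB shake-flask culture, induced with 0.3% L-arabinose, DNA abundance read by NGS, three biological replicates, DESeq2 with apeglm shrinkage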
- TEST_DETAILS: shrunken log2 fold change of peptide-encoding DNA abundance (4.5 h post-induction vs induction); higher = less antimicrobial activity (less host growth inhibition)
- TEST_CONTEXT: time post-induction: 4.5 h; library: site-saturation at positions 5, 18, 19, 20
Each entry below carries its reported shrunken log2 fold change.

Observe how each entry below is paired with its result.
RRIRGRPPRLPRPRPRPSWYPRP
-0.102
RRIRIRPPRLPRPRPRPPAWPRP
0.146
RRIRYRPPRLPRPRPRPGVKPRP
-0.188
RRIRNRPPRLPRPRPRPEMLPRP
0.0345
RRIRDRPPRLPRPRPRPYWVPRP
-0.129

## Input Look up shrunken log2 fold change for this sequence: RRIRDRPPRLPRPRPRPGLPPRP
## Output 0.245

## Input Look up shrunken log2 fold change for this sequence: RRIRQRPPRLPRPRPRPPTSPRP
## Output -0.00728

## Input Look up shrunken log2 fold change for this sequence: RRIRNRPPRLPRPRPRPVNQPRP
## Output 0.214

## Input Look up shrunken log2 fold change for this sequence: RRIRKRPPRLPRPRPRPSSQPRP
## Output 0.0821

## Input Look up shrunken log2 fold change for this sequence: RRIRFRPPRLPRPRPRPWIMPRP
## Output -0.206
